# system name: T1, human MUC1 on cells (DA3-TM transfectants and human cancer cell lines SKOV3, COLO357, HT29 and others) (human, UniProt P15941 24-1255)
# T1 construct: also called MUC1-SEA; surface MUC1
# T1 sequence (P15941 24-1255 limits assumed): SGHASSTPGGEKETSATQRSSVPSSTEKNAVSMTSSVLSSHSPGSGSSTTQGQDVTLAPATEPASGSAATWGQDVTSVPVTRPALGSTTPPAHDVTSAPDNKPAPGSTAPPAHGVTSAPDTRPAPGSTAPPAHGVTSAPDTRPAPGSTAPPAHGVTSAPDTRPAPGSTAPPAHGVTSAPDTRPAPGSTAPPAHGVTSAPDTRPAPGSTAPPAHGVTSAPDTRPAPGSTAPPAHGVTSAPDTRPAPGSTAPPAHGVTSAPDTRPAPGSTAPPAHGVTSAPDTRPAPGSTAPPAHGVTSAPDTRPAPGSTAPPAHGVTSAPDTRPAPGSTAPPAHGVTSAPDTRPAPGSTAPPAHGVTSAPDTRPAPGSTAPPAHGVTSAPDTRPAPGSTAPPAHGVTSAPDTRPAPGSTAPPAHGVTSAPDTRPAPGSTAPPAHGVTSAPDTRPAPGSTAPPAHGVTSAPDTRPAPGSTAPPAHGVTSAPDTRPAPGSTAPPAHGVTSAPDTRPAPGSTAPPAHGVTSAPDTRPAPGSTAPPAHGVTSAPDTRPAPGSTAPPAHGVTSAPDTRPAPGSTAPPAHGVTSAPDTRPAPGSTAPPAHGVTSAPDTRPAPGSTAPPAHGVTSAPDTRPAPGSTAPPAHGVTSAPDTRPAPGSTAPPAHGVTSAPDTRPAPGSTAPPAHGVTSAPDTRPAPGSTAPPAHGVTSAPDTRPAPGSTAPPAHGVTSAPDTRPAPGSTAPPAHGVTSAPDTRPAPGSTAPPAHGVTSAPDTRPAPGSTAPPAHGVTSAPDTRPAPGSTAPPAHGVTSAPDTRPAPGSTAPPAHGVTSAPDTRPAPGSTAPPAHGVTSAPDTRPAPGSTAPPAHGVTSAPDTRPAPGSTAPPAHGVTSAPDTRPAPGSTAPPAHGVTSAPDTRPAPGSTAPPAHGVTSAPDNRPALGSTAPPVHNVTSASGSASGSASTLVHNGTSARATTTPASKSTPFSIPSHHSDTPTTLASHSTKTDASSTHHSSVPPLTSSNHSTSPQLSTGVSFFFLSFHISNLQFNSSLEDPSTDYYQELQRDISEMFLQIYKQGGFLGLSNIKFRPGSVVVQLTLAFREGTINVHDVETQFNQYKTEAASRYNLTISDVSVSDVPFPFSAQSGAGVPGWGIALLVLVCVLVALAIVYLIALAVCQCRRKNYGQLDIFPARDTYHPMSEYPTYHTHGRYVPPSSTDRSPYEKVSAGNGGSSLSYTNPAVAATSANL
# method: flow cytometry on DA3-TM cells; table row 5 of 5, about 0.4 nM by the matching point in FIG. 3A
For each record, write down the corresponding Geometric Mean : FL6-A.
Enter a number only.

Lookup result for HM2 LM2 variant of humanized anti-MUC1 antibody SP66 (antibody, V domains shown, Humanized IgG expressed in CHO cells; only variable domains tied to the variant) VH: EIQLVQSGAEVKKPGSSVKVSCKVTGHSITRGSSWHWMRQAPGQGLEWIGYIHYGGGTSYNPSLKSRITITRDTSTNTAYMELSSLRSEDTAFYFCARYSYDITYRWFFDVWGQGTLVTVSS VL: DIQMTQSPSTLSASVGDRVTITCRASQNIGTSIHWYQQKPGKAPKLLIKRASESISGVPSRFSGSGSGTEFTLTISSLQPDDFATYYCQQNNNWPLTFGQGTKVEVK ; measured Geometric Mean : FL6-A: 2860

Lookup result for HM2 LM1 variant of humanized anti-MUC1 antibody SP66 (antibody, V domains shown, Humanized IgG expressed in CHO cells; only variable domains tied to the variant) VH: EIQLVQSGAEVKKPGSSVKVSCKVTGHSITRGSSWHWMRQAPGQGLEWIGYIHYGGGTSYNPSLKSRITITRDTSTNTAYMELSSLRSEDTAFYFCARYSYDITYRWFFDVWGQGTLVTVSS VL: DIQMTQSPSTLSASVGDRVTITCRASQNIGTSIHWFQQKPGKAPKLLIKRASESISGVPSRFSGSGSGTEFTLTISSLQPDDFATYYCQQNNNWPLTFGQGTKVEVK ; measured Geometric Mean : FL6-A: 727

Lookup result for HM5 LM2 variant of humanized anti-MUC1 antibody SP66 (antibody, V domains shown, Humanized IgG expressed in CHO cells; only variable domains tied to the variant) VH: EIQLVQSGAEVKKPGSSVKVSCKVTGHSITRGSSWHWMRQAPGQGLEWIGYIHYGGGTSYNPSLKSRITITRDTSTNTFYMELSSLRSEDTAFYFCARYSYDITYRWFFDVWGQGTLVTVSS VL: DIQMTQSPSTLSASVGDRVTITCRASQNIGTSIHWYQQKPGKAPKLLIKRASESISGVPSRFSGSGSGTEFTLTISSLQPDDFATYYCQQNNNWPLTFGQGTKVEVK ; measured Geometric Mean : FL6-A: 7990
